target: KRAS G12C (Homo sapiens, UniProt P01116+P62937, G12C); assay: Ras-Raf disruption/FRET/MOA assay, KRAS G12C; type: biochemical
Sequence (P01116 1-169 isoform P01116-2 G12C limits assumed): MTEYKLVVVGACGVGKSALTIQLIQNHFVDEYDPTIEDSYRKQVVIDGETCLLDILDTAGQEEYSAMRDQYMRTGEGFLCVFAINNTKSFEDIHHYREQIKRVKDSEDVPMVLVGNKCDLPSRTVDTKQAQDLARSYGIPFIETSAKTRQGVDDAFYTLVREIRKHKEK
Sequence (P62937 whole entry): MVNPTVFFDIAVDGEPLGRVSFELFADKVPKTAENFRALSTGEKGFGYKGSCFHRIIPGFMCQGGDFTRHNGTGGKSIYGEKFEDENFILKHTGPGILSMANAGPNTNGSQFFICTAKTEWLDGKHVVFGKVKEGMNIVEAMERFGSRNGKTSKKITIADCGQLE
pIC50: −log10 of the molar value.
measured_property: pIC50

# map each compound to its pIC50
1. CCn1c(-c2cnccc2COC)c2c3cc(ccc31)-c1cc(O)cc(c1)C[C@H](NC(=O)[C@H](C(C)C)N(C)C(=O)CN(C)C(=O)[C@H]1CN1)C(=O)N1CCC[C@H](N1)C(=O)OCC(C)(C)C2
2. CCn1c(-c2cnccc2COC)c2c3cc(ccc31)-c1cc(O)cc(c1)C[C@H](NC(=O)[C@H](C(C)C)N(C)C(=O)CN(C)C(=O)[C@H]1N[C@H]1c1ccccc1)C(=O)N1CCC[C@H](N1)C(=O)OCC(C)(C)C2
3. CCn1c(-c2cnccc2COC)c2c3cc(ccc31)-c1cc(O)cc(c1)C[C@H](NC(=O)[C@H](C(C)C)N(C)C(=O)CN(C)C(=O)[C@@H]1CN1Cc1ccccc1)C(=O)N1CCC[C@H](N1)C(=O)OCC(C)(C)C2 (stereo partly shown)
4. CCn1c(-c2cnccc2COC)c2c3cc(ccc31)-c1cc(O)cc(c1)C[C@H](NC(=O)[C@H](C(C)C)N(C)C(=O)CN(C)C(=O)[C@H]1CN1Cc1ccccc1)C(=O)N1CCC[C@H](N1)C(=O)OCC(C)(C)C2 (stereo partly shown)

> 8.00
6.00 to 7.00
7.00 to 8.00
7.00 to 8.00

###

Hi there, I'd appreciate the recorded pIC50 for every entry that follows.
tested on: NCI-H358 (K-Ras G12C); assay: CellTiter-Glo cell viability assay, H358; assay type: cell-based; conditions: Homo sapiens, NCI-H358, 120 h, read-out: H358 Cell Viability IC50, NCI-H358, K-Ras G12C, 5-day treatment
pIC50: −log10 of the molar value.

Some solved cases for reference:
CCn1c(-c2cccnc2[C@H](C)OC)c2c3cc(ccc31)-c1cc(O)cc(c1)C[C@H](NC(=O)[C@H](C(C)C)N(C)C(=O)CN(C)C(=O)[C@H]1CN1C(C)C)C(=O)N1CCC[C@H](N1)C(=O)OCC(C)(C)C2 (some centres unmarked) = > 8.00
CCn1c(-c2cnccc2COC)c2c3cc(ccc31)-c1cc(O)cc(c1)C[C@H](NC(=O)[C@H](C(C)C)N(C)C(=O)CN(C)C(=O)[C@H]1CN1Cc1ccccc1)C(=O)N1CCC[C@H](N1)C(=O)OCC(C)(C)C2 (some centres unmarked) = 7.00 to 8.00
CCn1c(-c2cccnc2[C@H](C)OC)c2c3cc(ccc31)-c1cc(O)cc(c1)C[C@H](NC(=O)[C@H](C(C)C)N(C)C(=O)CN(C)C(=O)[C@H]1CN1CCCOC(C)=O)C(=O)N1CCC[C@H](N1)C(=O)OCC(C)(C)C2 (some centres unmarked) = > 8.00
CCn1c(-c2cccnc2[C@H](C)OC)c2c3cc(ccc31)-c1cc(O)cc(c1)C[C@H](NC(=O)[C@H](C(C)C)N(C)C(=O)CN(C)C(=O)[C@H]1N[C@@H]1C(F)(F)F)C(=O)N1CCC[C@H](N1)C(=O)OCC(C)(C)C2 = > 8.00
CCn1c(-c2cccnc2[C@H](C)OC)c2c3cc(ccc31)-c1cc(O)cc(c1)C[C@H](NC(=O)[C@H](C(C)C)N(C)C(=O)CN(C)C(=O)[C@H]1CN1CC1(C)COC1)C(=O)N1CCC[C@H](N1)C(=O)OCC(C)(C)C2 (some centres unmarked) = > 8.00
CCn1c(-c2cccnc2[C@H](C)OC)c2c3cc(ccc31)-c1cc(O)cc(c1)C[C@H](NC(=O)[C@H](C(C)C)N(C)C(=O)[C@H](C)N(C)C(=O)[C@H]1CN1)C(=O)N1CCC[C@H](N1)C(=O)OCC(C)(C)C2 = 7.00 to 8.00
CCn1c(-c2cccnc2[C@H](C)OC)c2c3cc(ccc31)-c1cc(O)cc(c1)C[C@H](NC(=O)[C@H](C(C)C)N(C)C(=O)CN(C)C(=O)[C@@H]1N[C@@H]1C(C)C)C(=O)N1CCC[C@H](N1)C(=O)OCC(C)(C)C2 = 7.00 to 8.00

Now let's try a different one.
Give its pIC50 value. Item: CCn1c(-c2cccnc2[C@H](C)OC)c2c3cc(ccc31)-c1cc(O)cc(c1)C[C@H](NC(=O)[C@H](C(C)C)N(C)C(=O)CN(C)C(=O)[C@H]1CN1CCOC)C(=O)N1CCC[C@H](N1)C(=O)OCC(C)(C)C2 (some centres unmarked)
> 8.00
